Tested on: Trypanosoma brucei brucei
measurementNotes: Effect on free carnitine level in bloodstream Trypanosoma brucei brucei 427 assessed as increase in pyruvate level at 1 uM incubated for 5 hrs
Type: functional
Activity calls are given as the source filed them. The rule behind the calls is not given here.
Outcomes: active, inactive

1. CCc1ccccc1/N=C(\NCCN1CCOCC1)NC(=O)c1ccc(F)c(F)c1 :: active
2. CCc1ccccc1/N=C(\NCCN1CCOCC1)NC(=O)c1ccccc1 :: inactive
3. Cc1cc(Br)ccc1/N=C(\NCCN1CCOCC1)NC(=O)c1ccccc1 :: active
4. Cc1ccc(/N=C(\NCCN2CCOCC2)NC(=O)c2ccccc2)c(Cl)c1 :: active
5. CCc1ccccc1/N=C(\NCCN1CCOCC1)NC(=O)c1ccc(F)cc1 :: inactive
6. O=C(N/C(=N/c1ccccc1Br)NCCN1CCOCC1)c1ccccc1 :: active
7. Cc1ccccc1/N=C(\NCCN1CCOCC1)NC(=O)c1ccccc1 :: inactive
8. CCc1ccccc1/N=C(\NCCN1CCOCC1)NC(=O)c1ccc(C)cc1 :: inactive

====

System: Trypanosoma brucei brucei
measurementNotes: Effect on free CoA level in bloodstream Trypanosoma brucei brucei 427 assessed as increase in pyruvate level at 1 uM incubated for 5 hrs
Assay type: functional
Active and inactive are the calls of the source. The calls are words filed in the database; no cut-off is given here.
Outcomes: active, inactive

1. CCc1ccccc1/N=C(\NCCN1CCOCC1)NC(=O)c1ccc(C)cc1 :: inactive
2. Cc1ccc(/N=C(\NCCN2CCOCC2)NC(=O)c2ccccc2)c(Cl)c1 :: active
3. CCc1ccccc1/N=C(\NCCN1CCOCC1)NC(=O)c1ccc(F)c(F)c1 :: active
4. Cc1cc(Br)ccc1/N=C(\NCCN1CCOCC1)NC(=O)c1ccccc1 :: active
5. O=C(N/C(=N/c1ccccc1Br)NCCN1CCOCC1)c1ccccc1 :: active
6. Cc1ccccc1/N=C(\NCCN1CCOCC1)NC(=O)c1ccccc1 :: inactive
7. CCc1ccccc1/N=C(\NCCN1CCOCC1)NC(=O)c1ccccc1 :: inactive
8. CCc1ccccc1/N=C(\NCCN1CCOCC1)NC(=O)c1ccc(F)cc1 :: inactive

====

System: Trypanosoma brucei brucei
measurementNotes: Disruption of nucleotide metabolism in bloodstream Trypanosoma brucei brucei 427 assessed as depletion of deoxy-ATP at 1 uM incubated for 5 hrs
Assay type: functional, organism-based
Activity calls are given as the source filed them. No cut-off for these calls is given here.
measuredMetric: Activity

1) CCc1ccccc1/N=C(\NCCN1CCOCC1)NC(=O)c1ccc(F)c(F)c1 :: Active
2) Cc1cc(Br)ccc1/N=C(\NCCN1CCOCC1)NC(=O)c1ccccc1 :: Active
3) Cc1ccc(/N=C(\NCCN2CCOCC2)NC(=O)c2ccccc2)c(Cl)c1 :: Active
4) O=C(N/C(=N/c1ccccc1Br)NCCN1CCOCC1)c1ccccc1 :: Active

====

measurementNotes: Cytotoxicity against HEK293 cells assessed as inhibition of cell viability at 83 uM relative to control
Type: toxicity, cell-based
testContext: human, read-out: INH
measuredMetric: cytotoxicity at 83 µM (%)

1. CCc1ccccc1/N=C(\NCCN1CCOCC1)NC(=O)c1ccc(F)c(OC)c1 :: 94
2. CCc1ccccc1/N=C(\NCCN1CCOCC1)NC(=O)c1ccc(F)c(C)c1 :: 101
3. CCc1ccccc1/N=C(\NCCN1CCOCC1)NC(=O)c1ccc(C(C)C)cc1 :: 52
4. CCc1ccccc1/N=C(\NCCN1CCOCC1)NC(=O)c1cccc(Cl)c1 :: 67
5. CCCc1ccccc1/N=C(\NCCN1CCOCC1)NC(=O)c1ccccc1 :: 58
6. O=C(N/C(=N/c1ccccc1C(F)(F)F)NCCN1CCOCC1)c1ccccc1 :: 63
7. CC(C)c1ccccc1/N=C(\NCCN1CCOCC1)NC(=O)c1ccccc1 :: 63
8. CCc1ccccc1/N=C(\NCCN1CCOCC1)NC(=O)c1ccc(F)c(F)c1 :: 86

====

Tested on: Trypanosoma brucei brucei
measurementNotes: Anti-trypanosomal activity against Trypanosoma brucei brucei
Assay type: functional, organism-based
measuredMetric: IC50

1. CCc1ccccc1/N=C(\NCCN1CCOCC1)NC(=O)c1ccccc1F :: 7 µM
2. CCc1ccccc1/N=C(\NCCN1CCCC1)NC(=O)c1ccccc1 :: > 10 µM
3. CCc1ccccc1/N=C(\NCCN1CCOCC1)NC(=O)c1ccccc1Cl :: > 10 µM
4. Cc1cc(Br)ccc1/N=C(\NCCN1CCOCC1)NC(=O)c1ccccc1 :: 2.5 µM
5. CCc1ccccc1/N=C(\NCCN1CCOCC1)NC(=O)c1ccccc1C :: > 10 µM
6. O=C(N/C(=N/c1ccccc1F)NCCN1CCOCC1)c1ccccc1 :: > 10 µM

====

Tested on: Trypanosoma brucei brucei
measurementNotes: Disruption of nucleotide metabolism in bloodstream Trypanosoma brucei brucei 427 assessed as depletion of ATP at 1 uM incubated for 5 hrs
Type: functional, organism-based
Calls of active or inactive are those of the source. No cut-off for these calls is given here.
measuredMetric: Activity

1. Cc1ccc(/N=C(\NCCN2CCOCC2)NC(=O)c2ccccc2)c(Cl)c1 :: Active
2. CCc1ccccc1/N=C(\NCCN1CCOCC1)NC(=O)c1ccc(F)c(F)c1 :: Active
3. O=C(N/C(=N/c1ccccc1Br)NCCN1CCOCC1)c1ccccc1 :: Active

====

System: Trypanosoma brucei brucei
measurementNotes: Disruption of nucleotide metabolism in bloodstream Trypanosoma brucei brucei 427 assessed as accumulation of NMP at 1 uM incubated for 5 hrs
Type: functional, organism-based
Activity calls are given as the source filed them. No cut-off for these calls is given here.
Outcomes: true (1) = active, false (0) = inactive

1) O=C(N/C(=N/c1ccccc1Br)NCCN1CCOCC1)c1ccccc1 :: true (1)
2) CCc1ccccc1/N=C(\NCCN1CCOCC1)NC(=O)c1ccccc1 :: false (0)
3) Cc1cc(Br)ccc1/N=C(\NCCN1CCOCC1)NC(=O)c1ccccc1 :: true (1)
4) Cc1ccccc1/N=C(\NCCN1CCOCC1)NC(=O)c1ccccc1 :: false (0)
5) CCc1ccccc1/N=C(\NCCN1CCOCC1)NC(=O)c1ccc(C)cc1 :: false (0)
6) CCc1ccccc1/N=C(\NCCN1CCOCC1)NC(=O)c1ccc(F)cc1 :: false (0)

====

Test system: Trypanosoma brucei brucei
measurementNotes: Anti-trypanosomal activity against Trypanosoma brucei brucei
Type: functional, organism-based
pIC50: −log10 of the molar value.
measuredMetric: pIC50

1) CCc1ccccc1/N=C(\NCCN1CCOCC1)NC(=O)c1cccc(OC)c1 :: 5.80
2) O=C(N/C(=N/c1ccccc1Br)NCCN1CCOCC1)c1ccccc1 :: 5.38
3) CCc1ccccc1/N=C(\NCCN1CCOCC1)NC(=O)c1ccc(C(C)C)cc1 :: 5.00
4) CCc1ccccc1/N=C(\NCCN1CCOCC1)NC(=O)c1ccc(OC)cc1 :: 5.03
5) CCc1ccccc1/N=C(\NCCN1CCOCC1)NC(=O)c1ccc(F)c(OC)c1 :: 6.12
6) CCc1ccccc1/N=C(\NCCN1CCOCC1)NC(=O)c1ccc(Cl)cc1 :: 5.80
7) CCc1ccccc1/N=C(\NCCN1CCOCC1)NC(=O)c1ccc(Br)cc1 :: 5.06
8) CCc1ccccc1/N=C(\NCCN1CCOCC1)NC(=O)c1ccc(F)c(C)c1 :: 5.62
9) CCc1ccccc1/N=C(\NCCN1CCOCC1)NC(=O)c1ccc(F)c(F)c1 :: 5.74
10) O=C(N/C(=N/c1ccccc1Cl)NCCN1CCOCC1)c1ccccc1 :: 5.12
11) CCc1ccccc1/N=C(\NCCN1CCOCC1)NC(=O)c1ccc(C)cc1 :: 5.36
12) CCc1ccccc1/N=C(\NCCN1CCOCC1)NC(=O)c1cccc(F)c1 :: 5.80

====

Tested on: Trypanosoma brucei brucei
measurementNotes: Disruption of nucleotide metabolism in bloodstream Trypanosoma brucei brucei 427 assessed as accumulation of purine/pyrimidine base forms at 1 uM incubated for 5 hrs
Type: functional, organism-based
Calls of active or inactive are those of the source. No cut-off for these calls is given here.
Outcomes: Yes (active), No (inactive)

1) CCc1ccccc1/N=C(\NCCN1CCOCC1)NC(=O)c1ccccc1 :: No
2) O=C(N/C(=N/c1ccccc1Br)NCCN1CCOCC1)c1ccccc1 :: Yes
3) CCc1ccccc1/N=C(\NCCN1CCOCC1)NC(=O)c1ccc(F)cc1 :: No
4) Cc1ccccc1/N=C(\NCCN1CCOCC1)NC(=O)c1ccccc1 :: No
5) CCc1ccccc1/N=C(\NCCN1CCOCC1)NC(=O)c1ccc(C)cc1 :: No
6) Cc1cc(Br)ccc1/N=C(\NCCN1CCOCC1)NC(=O)c1ccccc1 :: Yes

====

System: Trypanosoma brucei brucei
measurementNotes: Induction of glycolysis in bloodstream Trypanosoma brucei brucei 427 assessed as increase in succinate level at 1 uM incubated for 5 hrs
Format: functional
Calls of active or inactive are those of the source. No cut-off for these calls is given here.
measuredMetric: Activity

1) Cc1ccc(/N=C(\NCCN2CCOCC2)NC(=O)c2ccccc2)c(Cl)c1 :: Active
2) Cc1ccccc1/N=C(\NCCN1CCOCC1)NC(=O)c1ccccc1 :: inactive
3) Cc1cc(Br)ccc1/N=C(\NCCN1CCOCC1)NC(=O)c1ccccc1 :: Active
4) CCc1ccccc1/N=C(\NCCN1CCOCC1)NC(=O)c1ccc(F)c(F)c1 :: Active
5) CCc1ccccc1/N=C(\NCCN1CCOCC1)NC(=O)c1ccc(C)cc1 :: inactive
6) O=C(N/C(=N/c1ccccc1Br)NCCN1CCOCC1)c1ccccc1 :: Active
7) CCc1ccccc1/N=C(\NCCN1CCOCC1)NC(=O)c1ccccc1 :: inactive
8) CCc1ccccc1/N=C(\NCCN1CCOCC1)NC(=O)c1ccc(F)cc1 :: inactive
